# Run description: Small Molecules that selectively kill Giardia lamblia: qHTS
# Recorded conditions: Giardia lamblia trophozoite viability; at 7.66 µM
Among all 340,000 compounds or so, about 530 (0.16%) were called active. About 2% were inconclusive and are not listed. No stated cut-off is given here; in the data, active means activity change below about -80%; inconclusive means between about -30% and that limit; inactive means weaker than that. The sample holds actives, similar compounds and a random draw of the others, so the mix is not that of the screen.
Response enum: active, inactive

Take a look at these entries with their results.
Task: What is the recorded call for this compound in the test? COc1cc(OC)c2c(C)cc(=O)oc2c1C(CCN1CCCCC1)c1ccc(N(C)C)cc1 (configuration not stated)
Result: inactive

Task: What is the recorded call for this compound in the test? CCOc1nc(NCCN2CCOCC2)nc(Nc2ccc(C)cc2)n1
Result: inactive

Task: What is the recorded call for this compound in the test? O=C(c1ccc2nc(N3CCOCC3)sc2c1)N1CCN(c2ccc(Cl)cc2)CC1
Result: inactive

Task: What is the recorded call for this compound in the test? O=C1C2C(c3ccccc3)CC=CC2C(c2ccoc2)N1Cc1ccccc1 (configuration not stated)
Result: inactive

Task: What is the recorded call for this compound in the test? Cc1cccc(NS(=O)(=O)c2ccc(-c3cnc(C4CC4)o3)cc2)c1
Result: inactive

---
Task: What is the recorded call for this compound in the test? COc1ccc2nc(N3C(=O)C(O)=C(C(=O)c4ccco4)C3c3ccco3)sc2c1 (configuration not stated)
Result: inactive

* * *

Exercise: for every item that follows, state its recorded activity change.
# Run description: Small Molecules that selectively kill Giardia lamblia: qHTS;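 further: parasites exposed to compound for two days anaerobically before the ATP read; on the % scale 0 is the no-effect control and ±100 the full control effect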
# Recorded conditions: Giardia lamblia trophozoite viability; at 7.66 µM; active compounds read low
About 530 (0.16%) of roughly 340,000 compounds were called active. Roughly 2% stayed inconclusive and do not appear here. The sample holds actives, similar compounds and a random draw of the others, so the mix is not that of the screen.
One number for each entry, in %.

Task: What does the record list as activity change for COc1ccc(CN2CCc3nc(Nc4ccccc4)ncc3C2)c(OC)c1OC ?
Result: -13.9

Task: What does the record list as activity change for COc1ccc(C(=O)Nc2cccc(NC(=O)c3ccc(OC)cc3OC)n2)c(OC)c1 ?
Result: -19

Task: What does the record list as activity change for CCN(CC)/[N+]([O-])=N/Oc1cc(O/[N+]([O-])=N/N2CCCC2CO)c([N+](=O)[O-])cc1[N+](=O)[O-] (stereo not given) ?
Result: 9.52

Task: What does the record list as activity change for CCOC(=O)c1cc(OC(=O)c2ccccc2Cl)n(-c2ccccc2)n1 ?
Result: 20.6

Task: What does the record list as activity change for CCN(CC)c1nc(C#N)nc(OC)n1 ?
Result: -9.05

Batch of 4 compounds: report activity change for each.
1. COc1ccc(-n2cnc3cc(NCc4ccco4)ccc32)cc1
2. O=c1onc(-c2c(F)cccc2F)n1-c1ccccc1Cl
3. Cc1ccc(C(=O)N2CCN(C3CCCCC3)CC2)s1
4. O=C1c2ccccc2C(=O)N1c1ccc(S(=O)(=O)N2CCOCC2)c2ccccc12

Result:
-16.4
-18.5
2.7
-26.6

Task: What does the record list as activity change for COc1cc(Cl)c(C)cc1NC(=O)CSc1nnc(-c2ccco2)n1CC(C)C ?
Result: 6.88

* * *

Exercise: for every item that follows, state its recorded activity change.
# Run description: Small Molecules that selectively kill Giardia lamblia: qHTS;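 further: parasites exposed to compound for two days anaerobically before the ATP read; on the % scale 0 is the no-effect control and ±100 the full control effect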
# Recorded conditions: Giardia lamblia trophozoite viability; at 7.66 µM; active compounds read low
The whole screen tested about 340,000 compounds, of which about 530 (0.16%) were called active. Another 2% or so got no clear call; they are omitted. The sample as a whole holds a higher share of actives than the screen did.
Numbers only, in %.

Sample records with activity change:
Task: What does the record list as activity change for CC(=NNC(=O)c1ccncc1)c1ccc(Cl)c(Cl)c1 ?
Result: -4.59

Task: What does the record list as activity change for CN(C)S(=O)(=O)c1cc(C(=O)Nc2ccn(C)n2)c(Cl)cc1Cl ?
Result: 4.66

Task: What does the record list as activity change for CCNC(=O)Nc1ccc(S(=O)(=O)Nc2cnc(C)nc2C)cc1 ?
Result: -28.2

Batch of 7 compounds: report activity change for each.
1. O=C(Nc1cccc2cccnc12)C(F)(F)F
2. COC(=O)N/N=C/c1c[n+]([O-])c2ccccc2[n+]1[O-]
3. COC(=O)c1ccc(NC(=O)CN(c2ccc(C)cc2)S(=O)(=O)c2c(C)n[nH]c2C)cc1
4. COC(=O)N/N=C/c1ccc(-c2ccc(Cl)c(Cl)c2)o1
5. CC(=O)OCC(NC(=O)C(Cc1ccccc1)NC(=O)OC(C)(C)C)C1OC(n2ccc(=O)[nH]c2=O)C(OC(C)=O)C1OC(C)=O (stereo not given)
6. COC(=O)C(C)N=Cc1ccccc1 (stereo not given)
7. O=[N+]([O-])c1ccccc1Nc1ccc(O)cc1

Result:
[11.7, -80.1, 12.5, -7.13, -16.1, -3.67, -6.38]

Batch of 5 compounds: report activity change for each.
1. O=C(NCc1ccccn1)[C@]1(C(F)(F)F)C[C@H](CCc2ccccc2)CCCO1
2. CCCCNC(=O)Cn1c(SCc2cccc(Cl)c2)nc2ccncc21
3. O=[N+]([O-])c1cccc(/C=N/Nc2ncc(Br)cn2)c1
4. Cc1ccc(SCC(CC(C)C)N2CCN(CCc3ccccc3)CCC2=O)cc1 (stereo not given)
5. O=C(NNC(=O)c1ccccc1[N+](=O)[O-])Nc1ccccc1C(F)(F)F

Result:
1. -0.242
2. 12.3
3. 23.3
4. -1.92
5. -21.9

* * *

# Run description: Small Molecules that selectively kill Giardia lamblia: qHTS;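 further: parasites exposed to compound for two days anaerobically before the ATP read; on the % scale 0 is the no-effect control and ±100 the full control effect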
# Recorded conditions: Giardia lamblia trophozoite viability; at 7.66 µM; active compounds read low
Screen size: about 340,000 compounds; about 530 (0.16%) were called active. Not shown: some 2% with an inconclusive outcome. For the sample, actives were picked, then their nearest neighbours and some compounds at random.
Exercise: for every item that follows, state its recorded activity change.
One number for each entry, in %.

Sample records with activity change:
Task: What does the record list as activity change for CC(C)C(C)NC(=O)COc1nc2ccccc2nc1N(C)C1CCCCC1 (stereo unspecified) ?
Result: 0.279

Task: What does the record list as activity change for [O-][n+]1ccc(OCc2ccccc2)cc1 ?
Result: 23.2

Batch of 3 molecules: report activity change for each.
1. COC(=O)C(CC(C)C)NS(=O)(=O)c1cc(Br)ccc1Br (stereo unspecified)
2. Oc1ccc(Br)cc1C1C=C(c2ccc3c(c2)OCO3)NC(c2ccc(Cl)cc2)N1 (stereo unspecified)
3. Cc1cc(C)cc(OCC(=O)Nc2cc(NC(=O)COc3cc(C)cc(C)c3)cc(C(=O)O)c2)c1

Result:
1. -10.7
2. -6.54
3. -12.2

* * *

# Run description: Small Molecules that selectively kill Giardia lamblia: qHTS;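 further: parasites exposed to compound for two days anaerobically before the ATP read; on the % scale 0 is the no-effect control and ±100 the full control effect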
# Recorded conditions: Giardia lamblia trophozoite viability; at 7.66 µM; active compounds read low
About 530 (0.16%) of roughly 340,000 compounds were called active. Inconclusive results (about 2%) are left out. What follows is part of a selection rich in actives, with near analogues and random picks from the rest.
Exercise: for every item that follows, state its recorded activity change.
Give bare numbers, in %.

Sample records with activity change:
Task: What does the record list as activity change for Cn1c(-c2ccco2)nc2cc3ccccc3cc21 ?
Result: -82.6

Task: What does the record list as activity change for CC1(C)c2[nH]c3ccccc3c2C[C@H]2C(=O)N(N)CC(=O)N21 ?
Result: -11.4

Task: What does the record list as activity change for CN(c1ccc2nc3ccccc3c(=O)n2n1)C1CCCCC1 ?
Result: -82.4

Task: What does the record list as activity change for CC(C)C(=O)N1c2ccccc2NC2=C(C(=O)CCC2)C1c1ccc(N(C)C)cc1 (stereo unspecified) ?
Result: 1.62

Task: What does the record list as activity change for Cc1ccc2ccc3c(c2n1)NS(=O)(=O)c1ccccc1-3 ?
Result: -5.37

Batch of 4 molecules: report activity change for each.
1. CC(C)C(NC(=O)C1CCC(C(C)(C)C)CC1)C(=O)NCCCN1CCCCC1 (stereo unspecified)
2. Cn1c(SCC(=O)Nc2ccc(Br)cc2F)nnc1-c1ccco1
3. COc1ccc(S(=O)(=O)N2CCN(c3ccc(F)cc3)CC2)cc1-c1noc(C)n1
4. COc1ccc(Br)cc1C1C2C=CCC(C)C2C(=O)N1Cc1ccccc1 (stereo unspecified)

Result:
1: -2.26; 2: -12.3; 3: 5.27; 4: 20

Batch of 2 molecules: report activity change for each.
1. COc1ccc2nc(N3CCN(C(=O)c4ccc([N+](=O)[O-])o4)CC3)sc2c1
2. CC(Nc1nc(N2CCCC2)nc2ccccc12)c1ccccc1 (stereo unspecified)

Result:
1. -98.8
2. 3.32
